- Target Desc: Porphobilinogen deaminase (Homo sapiens) (UniProt P08397)
- Sequence (whole entry): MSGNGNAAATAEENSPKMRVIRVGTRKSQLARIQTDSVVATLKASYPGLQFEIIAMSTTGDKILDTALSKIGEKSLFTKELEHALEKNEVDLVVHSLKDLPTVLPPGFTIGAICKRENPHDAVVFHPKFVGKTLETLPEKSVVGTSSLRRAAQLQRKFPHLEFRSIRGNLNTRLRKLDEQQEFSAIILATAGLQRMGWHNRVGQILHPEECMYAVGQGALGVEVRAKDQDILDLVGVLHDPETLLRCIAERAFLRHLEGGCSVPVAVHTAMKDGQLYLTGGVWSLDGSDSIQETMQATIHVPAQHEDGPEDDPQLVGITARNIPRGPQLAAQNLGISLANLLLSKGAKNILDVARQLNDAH
- Measurement Conditions: at 100 µM
- Description: Compound was evaluated for the inhibition of human HMBS at 100uM
The source made the active and inactive calls. The rule behind the calls is not given here.

>  <Compound>
Nc1ncc(-c2ccc(C(F)(F)F)nc2)cc1-c1ccc(C(F)(F)F)nc1

>  <inhibition>
inactive

$$$$
>  <Compound>
CCc1nc2ccccc2n1CC(O)COc1cc(C)ccc1Cl (stereo not given)

>  <inhibition>
inactive

$$$$
>  <Compound>
CCOC(=O)NC(=O)c1ccsc1NC(=O)c1nc2ccccc2s1

>  <inhibition>
inactive

$$$$
>  <Compound>
CNC1C(OC2C(OC3C(O)C(O)C(N=C(N)N)C(O)C3N=C(N)N)OC(C)C2(O)C=O)OC(CO)C(O)C1O (stereo not given)

>  <inhibition>
inactive

$$$$
>  <Compound>
O=C(Nc1cccc(-c2ccc(NCCCN3CCCC3)nc2)c1)c1ccccc1

>  <inhibition>
inactive

$$$$
>  <Compound>
Cc1ccc2cc(C3NC(=O)c4ccccc4N3)c(Cl)nc2c1 (stereo not given)

>  <inhibition>
inactive

$$$$
>  <Compound>
CC(C)(C)c1ccc(N[C@@H]2CCCC[C@H]2NC(=O)c2ccco2)cc1

>  <inhibition>
inactive

$$$$
>  <Compound>
COc1ccc(N(CCc2cccc(C)n2)C(C)=O)cc1

>  <inhibition>
inactive

$$$$
>  <Compound>
COc1ccc(OC(C)C(=O)Nc2ccc(Cl)cc2C)cc1 (stereo not given)

>  <inhibition>
inactive

$$$$
>  <Compound>
C[C@@H]1[C@H](O)[C@@H](C)/C=C/C=C/C=C/C=C/C=C/C=C/C=C/[C@H](O[C@@H]2O[C@H](C)[C@@H](O)[C@H](N)[C@@H]2O)C[C@@H]2O[C@](O)(C[C@@H](O)C[C@@H](O)[C@H](O)CC[C@@H](O)C[C@@H](O)CC(=O)O[C@H]1C)C[C@H](O)[C@H]2C(=O)O

>  <inhibition>
inactive

$$$$
>  <Compound>
CCCn1c(NC(=O)c2ccc3ccccc3n2)nc2ccccc21

>  <inhibition>
inactive

$$$$
>  <Compound>
N=C(N)Nc1ccc(-c2ccc(-c3ccc(N=C(N)N)c(Cl)c3)o2)cc1Cl

>  <inhibition>
inactive

$$$$
>  <Compound>
CC1COC(Cn2cncn2)(c2ccc(Oc3ccc(Cl)cc3)cc2Cl)O1 (stereo not given)

>  <inhibition>
inactive

$$$$
>  <Compound>
O=C(Nc1ccc(F)c(-c2nc3cc(-c4ccccc4)cnc3[nH]2)c1)N1CCCC1

>  <inhibition>
inactive

$$$$
>  <Compound>
Cc1cc(Nc2ccncc2)n2nc(C)c(-c3ccccc3Cl)c2n1

>  <inhibition>
inactive

$$$$
>  <Compound>
CC(=O)NC[C@@H]1CN(c2ccc(N3CCOCC3)c(F)c2)C(=O)O1

>  <inhibition>
inactive

$$$$
>  <Compound>
Cn1ncc2c(N3CCOCC3)nc(NCCc3c[nH]c4ccccc34)nc21

>  <inhibition>
inactive

$$$$
>  <Compound>
CS(=O)(=O)Cc1nc2ccccc2oc1=O

>  <inhibition>
inactive

$$$$
>  <Compound>
CCc1ccc(C(NCc2nc(N)nc(N(C)C)n2)C(C)C)cc1 (stereo not given)

>  <inhibition>
inactive

$$$$
>  <Compound>
COc1ccc(Cn2cnc3c(-c4ccco4)nc(Cl)nc32)cc1

>  <inhibition>
inactive

$$$$
